Molecular target: T1, human FcRn/b2M (human, UniProt P61769 21-119, biotinylated)
T1 construct: bought recombinant biotinylated protein (ACRO FCM-H82W4 or Immunitrack ITF01); also called hFcRn; hFcRn/hb2M
T1 sequence (chain, as listed by the source limits assumed, chain 1 of 2): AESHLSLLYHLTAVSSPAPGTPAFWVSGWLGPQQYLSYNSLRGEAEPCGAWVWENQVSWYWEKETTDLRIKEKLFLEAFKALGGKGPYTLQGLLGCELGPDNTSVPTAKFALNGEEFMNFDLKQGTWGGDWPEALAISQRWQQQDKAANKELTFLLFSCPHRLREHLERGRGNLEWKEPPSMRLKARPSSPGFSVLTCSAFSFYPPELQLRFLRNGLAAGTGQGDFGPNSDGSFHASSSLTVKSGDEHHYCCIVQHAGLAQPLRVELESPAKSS
T1 sequence (P61769 21-119 limits assumed, chain 2 of 2): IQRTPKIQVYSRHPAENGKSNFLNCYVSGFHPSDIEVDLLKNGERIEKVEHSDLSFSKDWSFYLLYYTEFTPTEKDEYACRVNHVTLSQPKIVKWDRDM
Test: SPR pH 6.0;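 also: surface plasmon resonance kinetics at 25 °C, diluted periplasmic extracts injected over immobilized ligand surfaces, 120 s association then 600–3600 s dissociation, running buffer containing 150 mM NaCl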
koff values, listed per item
Measurement Type: koff

Binder	Recorded Value
T0263018B11 F29D (VHH, name in Kabat numbering, FLAG3-His6 tagged) VHH: EVQLVESGGGVVQPGGSLRLSCAASGFTDSSYAMYWVRQAPGKGLEWVSAISSGGGSTDYADSVKGRFTISRDNSKNTLYLQMNSLRPEDTALYYCAADTLYTSLTWYSYWGQGTLVTVSS	0.0036 s⁻¹
T0263018B11 A33Q (VHH, name in Kabat numbering, FLAG3-His6 tagged) VHH: EVQLVESGGGVVQPGGSLRLSCAASGFTFSSYQMYWVRQAPGKGLEWVSAISSGGGSTDYADSVKGRFTISRDNSKNTLYLQMNSLRPEDTALYYCAADTLYTSLTWYSYWGQGTLVTVSS	0.0018 s⁻¹
T0263018B11 W100cD (VHH, name in Kabat numbering, FLAG3-His6 tagged) VHH: EVQLVESGGGVVQPGGSLRLSCAASGFTFSSYAMYWVRQAPGKGLEWVSAISSGGGSTDYADSVKGRFTISRDNSKNTLYLQMNSLRPEDTALYYCAADTLYTSLTDYSYWGQGTLVTVSS	0.0073 s⁻¹
T0263018B11 T96S (VHH, name in Kabat numbering, FLAG3-His6 tagged) VHH: EVQLVESGGGVVQPGGSLRLSCAASGFTFSSYAMYWVRQAPGKGLEWVSAISSGGGSTDYADSVKGRFTISRDNSKNTLYLQMNSLRPEDTALYYCAADSLYTSLTWYSYWGQGTLVTVSS	0.0016 s⁻¹
